- Method description: Oral bioavailability in rat at 5.8 mg/kg
- Type: ADME, organism-based
- Reported conditions: in vivo
Endpoint name: bioavailability (%)
I only need the number, in %, no unit after it.

So for C[N+]1(C)[C@@H]2CC[C@H]1C[C@@H](C=C(c1cccs1)c1cccs1)C2.[Br-] , the logged bioavailability turned out to be 2.4

* * *

// values below are reported pIC50
- Target or system: Muscarinic acetylcholine receptor M3 (Homo sapiens)
- Method description: Antagonist activity against human M3 receptor expressed in CHO cells assessed as inhibition of acetylcholine-induced calcium mobilization by FLIPR
# pIC50: negative log10 of molar concentration; output just the value

Please review the following examples before continuing.
Sure, the documented pIC50 for CN1[C@@H]2CC[C@H]1C[C@@H](CC(O)(c1ccccc1)c1ccccc1)C2 is 6.01

Just so you know, measured pIC50 for C[N+]1(C)[C@@H]2CC[C@H]1C[C@@H](CC(O)(c1cccc(Cl)c1)c1cccc(Cl)c1)C2 came out at 7.60

Entry C[N+]1(C)[C@@H]2CC[C@H]1C[C@@H](CC(O)(c1cccc(F)c1)c1cccc(F)c1)C2 , pIC50 reported as 7.96

Now look at this entry.
Field pIC50 (entry CCC(O)(C[C@H]1C[C@H]2CC[C@@H](C1)N2C)c1ccccc1 (stereo partly drawn) ) reads 6.87

* * *

- Method description: Systemic plasma clearance in rat at 2.5 mg/kg, iv
- Type: ADME, organism-based
- Design: dose 2.5 mg/kg, route intravenous
Endpoint name: clearance (mL/min/kg)
A number alone suffices; assume mL/min/kg.

Reported clearance of C[N+]1(C)[C@@H]2CC[C@H]1C[C@@H](CC(C#N)(c1ccccc1)c1ccccc1)C2.[Br-] : 74

* * *

- Target or system: Muscarinic acetylcholine receptor M3 (Homo sapiens, UniProt P20309)
- Sequence (P20309 whole entry): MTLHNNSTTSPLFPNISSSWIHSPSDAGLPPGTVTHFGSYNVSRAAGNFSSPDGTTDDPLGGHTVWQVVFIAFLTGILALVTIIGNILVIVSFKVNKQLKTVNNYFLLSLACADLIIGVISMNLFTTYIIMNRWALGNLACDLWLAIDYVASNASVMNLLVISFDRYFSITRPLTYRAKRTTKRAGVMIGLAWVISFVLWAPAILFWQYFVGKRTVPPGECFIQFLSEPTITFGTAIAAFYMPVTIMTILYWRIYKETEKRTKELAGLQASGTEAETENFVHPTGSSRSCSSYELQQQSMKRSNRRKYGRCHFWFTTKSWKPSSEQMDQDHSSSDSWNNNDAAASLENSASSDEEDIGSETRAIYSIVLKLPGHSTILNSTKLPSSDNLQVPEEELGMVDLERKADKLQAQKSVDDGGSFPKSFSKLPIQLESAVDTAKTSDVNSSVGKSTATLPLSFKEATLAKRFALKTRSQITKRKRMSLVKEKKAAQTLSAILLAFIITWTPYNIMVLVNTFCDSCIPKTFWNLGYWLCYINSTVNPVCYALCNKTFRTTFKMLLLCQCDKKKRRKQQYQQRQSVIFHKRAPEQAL
- Method description: Antagonist activity against human M3 receptor expressed in CHO cells assessed as inhibition of acetylcholine-induced calcium mobilization by FLIPR
List of IC50 values.
Enter your answer as a number in nM; do not include the unit.

Study these solved cases before continuing.
According to the records, this molecule Cc1c(F)cccc1C(O)(C[C@H]1C[C@H]2CC[C@@H](C1)[N+]2(C)C)c1cccc(F)c1C displays IC50 of 65

Looking up Cc1cc(C(O)(C[C@H]2C[C@H]3CC[C@@H](C2)[N+]3(C)C)c2csc(C)c2)cs1 , I see its IC50 listed as 65

// IC50 value for C[N+]1(C)[C@@H]2CC[C@H]1C[C@@H](CC(O)(c1ccsc1)c1ccsc1)C2 : 17

What the record says about CN1[C@@H]2CC[C@H]1C[C@@H](C(O)(c1ccccc1)c1ccccc1)C2 : IC50 is 1500

The value of IC50 measured for the molecule CN1[C@@H]2CC[C@H]1C[C@@H](CCC(O)(c1ccccc1)c1ccccc1)C2 turned out to be 134

Further cases:
Form: molecule = CN1[C@@H]2CC[C@H]1C[C@@H](CC(O)(c1ccccc1)c1ccccn1)C2 (some centres not stated) ; IC50 = 19

IC50 recorded for this molecule, C[N+]1(C)[C@@H]2CC[C@H]1C[C@@H](CC(O)(c1ccc(Cl)cc1)c1ccc(Cl)cc1)C2 , is 74

Record summary for Cc1ccccc1C(O)(C[C@H]1C[C@H]2CCC[C@@H](C1)[N+]2(C)C)c1ccccc1C : reported IC50 = 23

Per the records, this molecule ( C[N+]1(C)[C@@H]2CC[C@H]1C[C@@H](CC(O)(c1cc(F)cc(F)c1)c1cc(F)cc(F)c1)C2 ) has IC50 equal to 112

# IC50 of Cc1ccccc1C(O)(C[C@H]1C[C@H]2CC[C@@H](C1)[N+]2(C)C)c1ccccc1C.[Br-] = 10

* * *

- Target or system: Muscarinic acetylcholine receptor M3 (Homo sapiens, UniProt P20309)
Endpoint name: Ki (pM)
Report the figure in pM without appending any unit label.

Muscarinic acetylcholine receptor M3 (Homo sapiens, UniProt P20309) Ki of C[N+]1(C)[C@@H]2CC[C@H]1C[C@@H](C=C(c1cccs1)c1cccs1)C2.[Br-] is 450

Further cases:
Ki value, target or system Muscarinic acetylcholine receptor M3 (Homo sapiens, UniProt P20309), for C[N+]1(C)[C@@H]2CC[C@H]1C[C@@H](CC(C#N)(c1ccccc1)c1ccccc1)C2.[Br-] : 60

* * *

- Target or system: Muscarinic acetylcholine receptor M3 (Homo sapiens)
- Method description: Antagonist activity against human M3 receptor expressed in CHO cells assessed as inhibition of acetylcholine-induced calcium mobilization by FLIPR
- Assay type: functional, cell-based
- Reported conditions: read-out: pA2 (converted)
Entries annotated with measured log10(Kb)
Parameter value (number): base-10 log of Kb in nM.

Reported log10(Kb) for Cc1ccccc1C(O)(C[C@H]1C[C@H]2CC[C@@H](C1)[N+]2(C)C)c1ccccc1C.[Br-] was 0.70

Memo: C[N+]1(C)[C@@H]2CCC[C@H]1C[C@H](C=C(c1cccs1)c1cccs1)C2.[Br-] , reported log10(Kb): 0.00

Entry C[N+]1(C)[C@@H]2CC[C@H]1C[C@@H](CC(O)(c1cccs1)c1cccs1)C2.[Br-] , log10(Kb) reported as 0.40

Please fill in: log10(Kb) reported for C[N+]1(C)[C@@H]2CC[C@H]1C[C@@H](CC(O)(c1cccc(F)c1)c1cccc(F)c1)C2 = 1.00

Per the record, C[N+]1(C)[C@@H]2CC[C@H]1C[C@@H](CC(CO)(c1ccccc1)c1ccccc1)C2 has log10(Kb) of 0.60

log10(Kb) for C[N+]1(C)[C@@H]2CC[C@H]1C[C@@H](CC(C(N)=O)(c1ccccc1)c1ccccc1)C2.[I-] is -0.90

Notebook: C[N+]1(C)[C@@H]2CC[C@H]1C[C@@H](C=C(c1cccs1)c1cccs1)C2.[Br-] , log10(Kb) read as -1.00

***
Lab book: log10(Kb) of CN1[C@@H]2CC[C@H]1C[C@@H](CC(C#N)(c1ccccc1)c1ccccc1)C2 noted as -0.50

* * *

- Target or system: Muscarinic acetylcholine receptor M3 (Homo sapiens)
- Method description: Antagonist activity against human M3 receptor expressed in CHO cells assessed as inhibition of acetylcholine-induced calcium mobilization by FLIPR
Listed here are molecules together with their documented IC50.
Write the number in nM without appending the unit.

molecule C[N+]1(C)[C@@H]2CC[C@H]1C[C@@H](CC(O)(c1ccc(F)c(F)c1)c1ccc(F)c(F)c1)C2 , IC50 observed: 290

Please turn your attention to the following entry.
The value of IC50 measured for the molecule Cc1ccc(F)cc1C(O)(C[C@H]1C[C@H]2CC[C@@H](C1)[N+]2(C)C)c1cc(F)ccc1C turned out to be 37

* * *

- Target or system: UniProt P20309
- Method description: Antagonist activity against human M3 receptor expressed in CHO cells assessed as inhibition of acetylcholine-induced calcium mobilization by FLIPR
pIC50: −log10 of the molar value.
Quick list: pIC50 per entry.

Worked set:
Entry C[N+]1(C)[C@@H]2CC[C@H]1C[C@@H](CC(O)(c1cccs1)c1cccs1)C2.[Br-] ; pIC50 = > 8.00

Consider C[N+]1(C)[C@@H]2CCC[C@H]1C[C@H](CC(O)(c1ccccc1)c1ccccc1)C2.[Br-] . Its measured pIC50 is > 8.00

New cases:
GET /value?item= COc1ccc(C(O)(C[C@H]2C[C@H]3CC[C@@H](C2)[N+]3(C)C)c2ccc(OC)cc2)cc1 &field=pIC50 returns < 5.00

COc1ccccc1C(O)(C[C@H]1C[C@H]2CC[C@@H](C1)[N+]2(C)C)c1ccccc1OC has a reported pIC50 of < 5.00

Lab note: measured pIC50 of Cc1ccccc1C(=C[C@H]1C[C@H]2CC[C@@H](C1)[N+]2(C)C)c1ccccc1C.[Br-] was > 8.00

// pIC50 value for C[N+]1(C)[C@@H]2CC[C@H]1C[C@@H](C=C(c1cccs1)c1cccs1)C2.[Br-] : > 8.00

Field pIC50 (entry C[N+]1(C)[C@@H]2CCC[C@H]1C[C@H](C=C(c1cccs1)c1cccs1)C2.[Br-] ) reads > 8.00
